experiment: In vivo antitumor assay, Colo38(sc); design: species or system mice; details: mouse, in vivo, drug iv, sc, iv, qd 3-16, exp 1038
Measured Attribute: MTD (mg/kg)
Reply numerically in mg/kg, unit not repeated.

// lookup MTD for `Cc1cc(-c2c(F)cc3c4nn(CCN(C)C)c(=O)c-4cn(C4CC4)c3c2F)cc(C)n1.O=C(O)/C=C/C(=O)O`
58

---

Listing of recorded pIC50 by entry.
test system: P388 murine leukemia cells; experiment: In vitro cytotoxicity, one-hour exposure, clonogenic survival of P388 cells; format: cell-based; conditions: Mus musculus, read-out: in vitro cytotoxicity IC50, 1 hr exp.; P388, 1 hr exposure
pIC50 here is simply -log10 of the concentration when that concentration is written in mol/L.

Consider the reported pIC50 for these compounds:
// lookup pIC50 for `Cc1cc(-c2c(F)cc3c4nn(CCN5CCCC5)c(=O)c-4cn(C4CC4)c3c2F)cc(C)n1`
6.52

// lookup pIC50 for Cc1cc(-c2c(F)cc3c4nn([C@H]5CC[C@@H](N)CC5)c(=O)c-4cn(C4CC4)c3c2F)cc(C)n1 [Example 56a]
6.36

// lookup pIC50 for `CCN(CC)CCn1nc2c3cc(F)c(-c4cc(C)nc(C)c4)c(F)c3n(C3CC3)cc-2c1=O`
6.35

// lookup pIC50 for `Cc1cc(-c2c(F)cc3c4nn([C@H]5CC[C@H](NC=O)CC5)c(=O)c-4cn(C4CC4)c3c2F)cc(C)n1`
5.04

// lookup pIC50 for `Cc1cc(-c2c(F)cc3c4nn(CCN5CCCCC5)c(=O)c-4cn(C4CC4)c3c2F)cc(C)n1`
6.36

Next:
// lookup pIC50 for `Cc1cc(-c2c(F)cc3c4nn(CC5CCCCC5)c(=O)c-4cn(C4CC4)c3c2F)cc(C)n1`
5.17

// lookup pIC50 for `Cc1cc(-c2c(F)cc3c4nn(CCCCN(C)C)c(=O)c-4cn(C4CC4)c3c2F)cc(C)n1`
6.40

// lookup pIC50 for Cc1cc(-c2c(F)cc3c4nn(CCC5CCCN5C)c(=O)c-4cn(C4CC4)c3c2F)cc(C)n1 (stereo not drawn)
6.48

// lookup pIC50 for CC(=O)N[C@H]1CC[C@H](n2nc3c4cc(F)c(-c5cc(C)nc(C)c5)c(F)c4n(C4CC4)cc-3c2=O)CC1 [Example 52b]
5.92

// lookup pIC50 for Cc1cc(-c2c(F)cc3c4nn([C@H]5CC[C@H](N(C)C)CC5)c(=O)c-4cn(C4CC4)c3c2F)cc(C)n1 [Example 51b]
6.59

// lookup pIC50 for Cc1cc(-c2c(F)cc3c4nn([C@H]5CC[C@H](N)CC5)c(=O)c-4cn(C4CC4)c3c2F)cc(C)n1 [Example 56b]
5.82

// lookup pIC50 for Cc1cc(-c2c(F)cc3c4nn(C5CCC(C)CC5)c(=O)c-4cn(C4CC4)c3c2F)cc(C)n1 (stereo not drawn)
5.85

---

Assay: In vivo antitumor assay, Mam16C(sc)
Parameters: species or system mice
Conditions: mouse, in vivo, drug iv, qd 1-4, exp 1132
Source text: Mice: Inbred: C3H/He and NCR-nu; and Hybrids: B6D2F1 (C57BL/6 females×DBA/2 males, CD2F1 (Balb/c females×DBS/2 males) and B6C3fl (C57BL/6×C3H) were bred at Wayne State University from strains obtained from the Frederick Cancer Research Facility, Frederick, Maryland or purchased from commercial suppliers. […] Quantitative end points used to assess antitumor activity included % Increased Life Span (% ILS), Tumor Cell Kill (Log10 kill), and Tumor Growth Inhibition (T/C). […]
Measured Attribute: MTD (mg/kg)
Reply numerically in mg/kg, unit not repeated.

// lookup MTD for `Cc1cc(-c2c(F)cc3c4nn(CCN(C)C)c(=O)c-4cn(C4CC4)c3c2F)cc(C)n1.O=C(O)/C=C/C(=O)O`
43

---

test system: P388 murine leukemia cells; experiment: In vitro cytotoxicity, continuous (48-hour) exposure of P388 cells; type: cell-based; conditions: Mus musculus; P388, continuous exposure (48-hour); read-out: in vitro cytotoxicity IC50, cont. exp.
Measured Attribute: pIC50
pIC50 here is simply -log10 of the concentration when that concentration is written in mol/L.

Consider the reported pIC50 for these compounds:
// lookup pIC50 for Cc1cc(-c2c(F)cc3c4nn(-c5ccccc5)c(=O)c-4cn(C4CC4)c3c2F)cc(C)n1 [Example 22]
6.08

// lookup pIC50 for CCCCn1nc2c3cc(F)c(-c4cc(C)nc(C)c4)c(F)c3n(C3CC3)cc-2c1=O [Example 4]
5.82

Next:
// lookup pIC50 for COc1cc(Cn2nc3c4cc(F)c(-c5cc(C)nc(C)c5)c(F)c4n(C4CC4)cc-3c2=O)cc(OC)c1OC [Example 36]
5.92

// lookup pIC50 for Cc1cc(-c2c(F)cc3c4nn(CC(=O)O)c(=O)c-4cn(C4CC4)c3c2F)cc(C)n1 [Example 53]
4.74

// lookup pIC50 for Cc1cc(-c2c(F)cc3c4nn(-c5c(F)c(F)c(F)c(F)c5F)c(=O)c-4cn(C4CC4)c3c2F)cc(C)n1 [Example 25]
5.66

// lookup pIC50 for Cc1cc(-c2c(F)cc3c4nn(CC(F)(F)F)c(=O)c-4cn(C4CC4)c3c2F)cc(C)n1 [Example 2]
5.85

// lookup pIC50 for Cc1cc(-c2c(F)cc3c4nn(CCN5CCOCC5)c(=O)c-4cn(C4CC4)c3c2F)cc(C)n1 [Example 20]
6.39

// lookup pIC50 for Cc1cc(-c2c(F)cc3c4nn(Cc5ccc(O)cc5)c(=O)c-4cn(C4CC4)c3c2F)cc(C)n1 [Example 35]
6.60

---

experiment: In vivo antitumor assay, P388(ip); design: species or system mice; settings: mouse, in vivo, drug iv, qd 1,5,9
Listing of recorded MTD by entry.
Just so you know, I need the unit written after the number.

// lookup MTD for `Cc1cc(-c2c(F)cc3c4nn(CCCN(C)C)c(=O)c-4cn(C4CC4)c3c2F)cc(C)n1`
64 mg/kg

// lookup MTD for `Cc1cc(-c2c(F)cc3c4nn(CCN(C)C)c(=O)c-4cn(C4CC4)c3c2F)cc(C)n1.O=C(O)/C=C/C(=O)O`
117 mg/kg

// lookup MTD for `Cc1cc(-c2c(F)cc3c4nn(CCNCCO)c(=O)c-4cn(C4CC4)c3c2F)cc(C)n1`
120 mg/kg

// lookup MTD for Cc1cc(-c2c(F)cc3c4nn([C@H]5CC[C@H](N(C)C)CC5)c(=O)c-4cn(C4CC4)c3c2F)cc(C)n1 [Example 51b]
120 mg/kg

Next:
// lookup MTD for Cc1cc(-c2c(F)cc3c4nn([C@H]5CC[C@@H](N(C)C)CC5)c(=O)c-4cn(C4CC4)c3c2F)cc(C)n1 [Example 51a]
39.9 mg/kg

---

target: human topoisomerase II (Homo sapiens); construct: Topo II was purified from late log phase suspension cultures of HeLa WIS; endogenous in cells; host or cells: HeLa WIS; test: Mammalian topoisomerase II inhibition assay (topo II covalently attached to DNA, relative to mAMSA); type: biochemical; details: conc. achieving 50% of maximal effect of mAMSA; topo II from HeLa cells; read-out: topo II inh. EC50
Sequence (P11388 whole entry): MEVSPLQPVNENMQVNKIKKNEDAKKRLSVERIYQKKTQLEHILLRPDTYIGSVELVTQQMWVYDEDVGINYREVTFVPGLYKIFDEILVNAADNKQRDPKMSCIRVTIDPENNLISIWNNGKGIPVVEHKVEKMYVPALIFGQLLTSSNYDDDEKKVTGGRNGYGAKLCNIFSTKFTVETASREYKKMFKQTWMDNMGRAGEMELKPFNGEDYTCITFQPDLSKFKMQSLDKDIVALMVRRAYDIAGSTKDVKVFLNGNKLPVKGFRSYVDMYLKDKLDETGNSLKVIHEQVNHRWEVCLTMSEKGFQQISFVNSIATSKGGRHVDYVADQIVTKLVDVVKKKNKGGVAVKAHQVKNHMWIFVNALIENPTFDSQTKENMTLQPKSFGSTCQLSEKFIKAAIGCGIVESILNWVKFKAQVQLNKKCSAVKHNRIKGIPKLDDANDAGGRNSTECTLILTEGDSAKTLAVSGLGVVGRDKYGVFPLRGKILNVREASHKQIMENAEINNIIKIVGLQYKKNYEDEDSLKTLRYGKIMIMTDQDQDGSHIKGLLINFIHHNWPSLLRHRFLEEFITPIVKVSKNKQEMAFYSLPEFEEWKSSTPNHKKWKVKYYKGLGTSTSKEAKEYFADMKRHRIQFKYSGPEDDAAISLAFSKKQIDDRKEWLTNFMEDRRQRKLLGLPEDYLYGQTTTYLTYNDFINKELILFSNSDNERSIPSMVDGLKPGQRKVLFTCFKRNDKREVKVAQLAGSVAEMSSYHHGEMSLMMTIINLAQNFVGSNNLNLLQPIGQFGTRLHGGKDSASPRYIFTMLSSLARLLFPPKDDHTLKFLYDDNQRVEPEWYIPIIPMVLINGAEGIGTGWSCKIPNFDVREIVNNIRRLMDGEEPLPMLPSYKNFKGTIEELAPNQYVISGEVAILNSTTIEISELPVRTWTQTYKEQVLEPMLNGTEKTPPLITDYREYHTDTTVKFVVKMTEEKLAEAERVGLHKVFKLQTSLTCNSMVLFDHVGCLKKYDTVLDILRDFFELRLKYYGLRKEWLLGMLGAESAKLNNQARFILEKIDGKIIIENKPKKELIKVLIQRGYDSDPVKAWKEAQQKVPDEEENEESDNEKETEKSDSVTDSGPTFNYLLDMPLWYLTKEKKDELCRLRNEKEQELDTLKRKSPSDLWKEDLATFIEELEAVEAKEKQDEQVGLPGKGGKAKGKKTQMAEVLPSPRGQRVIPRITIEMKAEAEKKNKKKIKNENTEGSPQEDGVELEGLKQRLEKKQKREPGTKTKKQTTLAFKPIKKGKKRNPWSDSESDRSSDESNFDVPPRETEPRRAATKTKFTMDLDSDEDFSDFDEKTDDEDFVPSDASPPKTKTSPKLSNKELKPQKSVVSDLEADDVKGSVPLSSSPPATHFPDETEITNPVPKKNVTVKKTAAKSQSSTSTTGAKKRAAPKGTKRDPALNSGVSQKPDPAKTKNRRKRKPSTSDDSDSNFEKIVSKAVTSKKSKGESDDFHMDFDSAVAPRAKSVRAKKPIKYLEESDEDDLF
Listing of recorded pEC50 by entry.
pEC50 here is simply -log10 of the concentration when that concentration is written in mol/L.

Consider the reported pEC50 for these molecules:
# value lookup — system human topoisomerase II (Homo sapiens), readout pEC50, item `Cc1cc(-c2c(F)cc3c4nn(CCCCO)c(=O)c-4cn(C4CC4)c3c2F)cc(C)n1`
5.38

# value lookup — system human topoisomerase II (Homo sapiens), readout pEC50, item CC(=O)N[C@H]1CC[C@@H](n2nc3c4cc(F)c(-c5cc(C)nc(C)c5)c(F)c4n(C4CC4)cc-3c2=O)CC1 [Example 52a]
5.13

# value lookup — system human topoisomerase II (Homo sapiens), readout pEC50, item Cc1cc(-c2c(F)cc3c4nn([C@H]5CC[C@@H](N)CC5)c(=O)c-4cn(C4CC4)c3c2F)cc(C)n1 [Example 56a]
6.30

# value lookup — system human topoisomerase II (Homo sapiens), readout pEC50, item `COC(Cn1nc2c3cc(F)c(-c4cc(C)nc(C)c4)c(F)c3n(C3CC3)cc-2c1=O)OC`
4.64

# value lookup — system human topoisomerase II (Homo sapiens), readout pEC50, item `Cc1cc(-c2c(F)cc3c4n[nH]c(=O)c-4cn(C4CC4)c3c2F)cc(C)n1`
4.96

# value lookup — system human topoisomerase II (Homo sapiens), readout pEC50, item `Cc1cc(-c2c(F)cc3c4nn([C@H]5CC[C@H](NC=O)CC5)c(=O)c-4cn(C4CC4)c3c2F)cc(C)n1`
5.82

# value lookup — system human topoisomerase II (Homo sapiens), readout pEC50, item `Cc1cc(-c2c(F)cc3c4nn(C5CCN(C)CC5)c(=O)c-4cn(C4CC4)c3c2F)cc(C)n1`
5.49

# value lookup — system human topoisomerase II (Homo sapiens), readout pEC50, item Cc1cc(-c2c(F)cc3c4nn(C5CCC(c6ccccc6)CC5)c(=O)c-4cn(C4CC4)c3c2F)cc(C)n1 (stereo not drawn)
5.35

# value lookup — system human topoisomerase II (Homo sapiens), readout pEC50, item Cc1cc(-c2c(F)cc3c4nn([C@H]5CC[C@H](N)CC5)c(=O)c-4cn(C4CC4)c3c2F)cc(C)n1 [Example 56b]
5.38

# value lookup — system human topoisomerase II (Homo sapiens), readout pEC50, item `Cc1cc(-c2c(F)cc3c4nn(C(C)(C)C)c(=O)c-4cn(C4CC4)c3c2F)cc(C)n1`
5.16

Next:
# value lookup — system human topoisomerase II (Homo sapiens), readout pEC50, item `Cc1cc(-c2c(F)cc3c4nn(CCC#N)c(=O)c-4cn(C4CC4)c3c2F)cc(C)n1`
5.17
